Values were extracted from PubChem BioAssay AID623868.

# measurementNotes: thallium influx changes without GIRK channels – cell-based, HEK-293 rmGlu8, no GIRK, thallium flux, counter-screen for GIRK activator project, confirmation (AID 623868);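 also: extra codes mark interference with 3 for fluorescent and 4 for baseline rise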
# assayConditions: thallium flux fluorescence, at 10 µM, actives lie on both sides, codes: 1 enhancer, -1 blocker, 0 none, thallium stimulus containing EC20 glutamate
In all, about 2,100 compounds went through this assay and about 760 (36%) were called active. These entries were drawn from the full list.
parameter: manual score
Please give only the number in your answer, with no unit.

Examples with answers:
- compound: "O=C(CSc1nc(O)cc(=O)n1-c1ccccc1)N1CCCCC1"
  manual score: 2
- compound: "COc1ccc(OC)c(Nc2ncnc3c2cnn3-c2cccc(C)c2)c1"
  manual score: 0
- compound: "NC(=O)CSc1ncnc2c1cnn2Cc1ccccc1"
  manual score: 0
- compound: "CCN(C(=O)CSc1nc2ccccc2n1CCc1ccccc1)C1CCS(=O)(=O)C1 (configuration not stated)"
  manual score: 0
- compound: "CCN(CC)CCCNC(=O)c1cc(-c2ccc(Cl)c(Cl)c2)on1"
  manual score: 0

Next compound, manual score to be filled in.
Report manual score for `O=C(Nc1ccc(F)c(F)c1)NC1CCCCC1` please. 0

* * *

# measurementNotes: thallium influx changes without GIRK channels – cell-based, HEK-293 rmGlu8, no GIRK, thallium flux, counter-screen for GIRK activator project, confirmation (AID 623868);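 also: extra codes mark interference with 3 for fluorescent and 4 for baseline rise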
# assayConditions: thallium flux fluorescence, at 10 µM, actives lie on both sides, codes: 1 enhancer, -1 blocker, 0 none, thallium stimulus containing EC20 glutamate
The whole screen tested about 2,100 compounds, of which about 760 (36%) were called active. Not all results are given here.
parameter: manual score
API doc: respond with a numeric literal and nothing else, no unit.

- compound: "CCCCCn1nc(-c2ccccc2)c2nc3ccccc3nc21"
  parameter: "manual score"
  quantitativeResult: 3
- compound: "O=C1CC(N2CCN(c3nc4ccccc4s3)CC2)C(=O)N1c1ccc(F)cc1 (stereo unspecified)"
  parameter: "manual score"
  quantitativeResult: 0
- compound: "CC1(C)CC(=O)C2=C(C1)NC(SCC(=O)Nc1ccccc1)=C(C#N)C2c1ccco1 (stereo unspecified)"
  parameter: "manual score"
  quantitativeResult: 0.5
- compound: "COc1ccc(/C=C2\\SC(=O)NC2=S)cc1OC"
  parameter: "manual score"
  quantitativeResult: 1
- compound: "Cc1ccc(S(=O)(=O)N2CCN(C)CC2)cc1-c1nnc2c3ccccc3c(C)nn12"
  parameter: "manual score"
  quantitativeResult: 0
- compound: "CCCCc1cc(=O)oc2cc(C)cc(O)c12"
  parameter: "manual score"
  quantitativeResult: -0.5

// lookup manual score for CCC1Oc2ccc(C)cc2N(CC(=O)N(Cc2ccc(C)o2)C2CCCC2)C1=O (stereo unspecified) 0

How about this compound: `CC(=O)Nc1ccc(C(=O)CSc2nc3ccc(C)cc3[nH]2)cc1` 0

Another compound: CCc1ccc(CNCCNCC(C)O)cc1 (stereo unspecified) 0

Next: `O=C(NC(=S)Nc1nc2ccccc2s1)c1ccco1` 1

// next record `COc1ccc(-c2cc(C(F)(F)F)c3c(n2)sc2c(O)cc(=O)[nH]c23)c(OC)c1` 0

Now the compound `C/C(=N\NC(=O)c1ccccc1)c1nc2ccccc2n1C` 0

Would you kindly repeat that for O=C(/C=C/c1ccccc1)NC(NC(=S)Nc1cccc(Cl)c1)C(Cl)(Cl)Cl (stereo unspecified) ? 0

And then `C=COCCNC(=O)Nc1ccc(Cl)c(Cl)c1` , what is it? 0

* * *

# measurementNotes: thallium influx changes without GIRK channels – cell-based, HEK-293 rmGlu8, no GIRK, thallium flux, counter-screen for GIRK activator project, confirmation (AID 623868);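 also: extra codes mark interference with 3 for fluorescent and 4 for baseline rise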
# assayConditions: thallium flux fluorescence, at 10 µM, actives lie on both sides, codes: 1 enhancer, -1 blocker, 0 none, thallium stimulus containing EC20 glutamate
The whole screen tested about 2,100 compounds, of which about 760 (36%) were called active.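 How the source made its calls: active means thallium-flux fluorescence traces judged by eye to show enhanced or reduced glutamate response, manual score 1 or -1, so both directions (some results past the limit were not filed as active); inactive means the rest, including fluorescent or raised-baseline compounds.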 The list is a sample of the results.
Permitted responses: label 1 (active), label 0 (inactive)

- compound: "Cc1cc(C(=O)N2CCN(CCc3ccccc3)CC2)no1"
  category: "label 0"
- compound: "COc1ccc(OC)c(C2C(C(=O)c3cccs3)=C(O)C(=O)N2c2cc(C)on2)c1 (stereo not given)"
  category: "label 1"
- compound: "COc1ccc(OC)c(C2C(C(=O)c3cc4ccccc4o3)=C(O)C(=O)N2c2cc(C)on2)c1 (stereo not given)"
  category: "label 1"
- compound: "CSc1ccccc1NC(=O)Nc1ccc(Cl)cc1"
  category: "label 0"

For C=CCOc1cccc(C2C(C(=O)c3ccc(C)o3)=C(O)C(=O)N2c2nccs2)c1 (stereo not given) , what call appears in the results of this test? label 0

* * *

# measurementNotes: thallium influx changes without GIRK channels – cell-based, HEK-293 rmGlu8, no GIRK, thallium flux, counter-screen for GIRK activator project, confirmation (AID 623868);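 also: extra codes mark interference with 3 for fluorescent and 4 for baseline rise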
# assayConditions: thallium flux fluorescence, at 10 µM, actives lie on both sides, codes: 1 enhancer, -1 blocker, 0 none, thallium stimulus containing EC20 glutamate
Among all 2,100 compounds or so, about 760 (36%) were called active.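 Rule for the calls: active = thallium-flux fluorescence traces judged by eye to show enhanced or reduced glutamate response, manual score 1 or -1, so both directions (some results past the limit were not filed as active); inactive = the rest, including fluorescent or raised-baseline compounds.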 Only a sample is shown.
Please reply with one of these outcomes: true (1) = active, false (0) = inactive

Check out these entries, answers already filled in.
- compound: "CC(=O)Oc1ccc2c(c1)Oc1cc(OC(C)=O)ccc1C21OC(=O)c2ccccc21"
  category: "false (0)"
- compound: "Cc1cc(C)c2nc(NC(=O)c3cc(C)on3)sc2c1"
  category: "true (1)"
- compound: "OC(c1ccccc1)C1CN(Cc2ccccc2)CCC1(O)c1ccccc1 (stereo unspecified)"
  category: "false (0)"
- compound: "CC(/C=N/n1c(-c2ccccc2)n[nH]c1=S)=C\\c1ccco1"
  category: "true (1)"
- compound: "O=C(CSc1ccc(-c2ccco2)nn1)c1ccccc1"
  category: "false (0)"
- compound: "COc1ccc(-c2nnc(NC(=O)c3ccc(F)cc3)o2)cc1"
  category: "true (1)"
- compound: "CCN(CC)c1ccc(/C=C2/C(=O)c3ccc(C(=O)O)cc3C2=O)cc1"
  category: "false (0)"
- compound: "CC(C)(C)c1ccc(CN2C3=NCCCN3c3ccccc32)cc1"
  category: "false (0)"

# fetch the recorded call for `O=C(Nc1nc2ccc(Cl)cc2s1)c1ccc(Br)o1` here false (0)

One more compound: `CCc1cc(C(N)=O)c(NC(=O)c2ccc(OC)cc2)s1` false (0)

Cool, now `CNC(=O)c1ccc2nc(NC(C)=O)sc2c1` false (0)

* * *

Quick list: manual score per entry.
# measurementNotes: thallium influx changes without GIRK channels – cell-based, HEK-293 rmGlu8, no GIRK, thallium flux, counter-screen for GIRK activator project, confirmation (AID 623868);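 also: extra codes mark interference with 3 for fluorescent and 4 for baseline rise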
# assayConditions: thallium flux fluorescence, at 10 µM, actives lie on both sides, codes: 1 enhancer, -1 blocker, 0 none, thallium stimulus containing EC20 glutamate
The whole screen tested about 2,100 compounds, of which about 760 (36%) were called active. Not all results are given here.

# annotated cases, reported manual score shown
- compound: "CCN(CC)C(=O)CSc1nc2ccccc2c(=O)n1-c1ccccc1OC"
  manual score: "-1 (active)"
- compound: "COC(=O)c1ccc2c(=O)n(C3CCCCC3)c(SCC#N)nc2c1"
  manual score: "0 (inactive)"
- compound: "CCc1ccc2c(c1)C1(NN=C(c3cccc4ccccc34)S1)C(=O)N2 (stereo not given)"
  manual score: "0 (inactive)"

Form field: reported manual score of `CCOC(=O)N1CCN(C(=O)CSc2nc3c(c(=O)n2-c2ccccc2OC)SCC3)CC1` -1 (active)

Another compound to check: `CCOC(=O)CSc1nc2c(sc(=S)n2-c2ccccc2OC)c(=O)n1Cc1ccco1` -0.5 (inactive)

Same read-out for `Cc1ccc(/C=N/Nc2nc(Cl)c(Cl)cc2Cl)s1` ? 1 (active)

# repeat for `CCCn1c(O)c(N=NC(=O)c2ccco2)c2ccccc21` 1 (active)

Also check CCCCC(=O)N1CCCC(c2nc3c(nnn3Cc3cc(C)ccc3C)c(=O)[nH]2)C1 (stereo not given) 0 (inactive)

Do the same for `CCCCNC(=S)N=Nc1c(O)n(Cc2ccccc2)c2ccccc12` please 1 (active)

Cool, now `NC(=O)c1noc(C(=O)N(CC(=O)NC2CCCC2)Cc2ccc3c(c2)OCO3)c1N` 0 (inactive)

* * *

The entries below are paired with their reported manual score.
# measurementNotes: thallium influx changes without GIRK channels – cell-based, HEK-293 rmGlu8, no GIRK, thallium flux, counter-screen for GIRK activator project, confirmation (AID 623868);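 also: extra codes mark interference with 3 for fluorescent and 4 for baseline rise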
# assayConditions: thallium flux fluorescence, at 10 µM, actives lie on both sides, codes: 1 enhancer, -1 blocker, 0 none, thallium stimulus containing EC20 glutamate
Hit rate of the full screen: of about 2,100 compounds, about 760 (36%) were called active. A selection follows.
Please reply with the number alone, leaving off any unit.

Below, 4 compounds whose answers are already recorded.
- compound: "O=C(O)CN=C(NS(=O)(=O)c1ccccc1)c1ccccc1"
  quantitativeResult: 0
- compound: "Cc1ccccc1NC(=O)C(=O)NC(C)CCc1ccccc1 (stereo unspecified)"
  quantitativeResult: 0
- compound: "CCc1ccc(C(=O)OCC(=O)Nc2cccc(S(=O)(=O)NC3=NCCCCC3)c2)cc1"
  quantitativeResult: 0
- compound: "Fc1ccc(-c2nnc3ccc(N4CCc5ccccc5C4)nn23)cc1"
  quantitativeResult: 0

Returns the measured manual score for the input compound. Input: `C/C(CC(=O)NC(C)C)=N\NC(=O)COc1cc(C)c(Br)cc1Br` 0
